Entry source: PubChem BioAssay (NCI)

Tested on: M19-MEL melanoma
Experiment description: NCI tumour cell line growth inhibition, 48 h
So I've got a bunch of compounds here, and I need their TGI values.

| Compound | TGI |
| --- | --- |
| O=C1C(c2ccc([N+](=O)[O-])cc2)=[N+]([O-])c2ccc([N+](=O)[O-])cc21 | 88.2 µM |
| Nc1nc[n+](Cc2ccccc2)c2ncn(Cc3ccccc3)c12 | > 100 µM |
| Cn1nc(-c2ccccc2)c(C(=O)/C=C/c2ccc(F)cc2)c(N2CCCC2)c1=O | 33.8 µM |

Parameter requested: TGI. Apply to each item below.
1. CCCCCCCCCCCC[C@@H](O)[C@H]1CC[C@H]([C@H](O)CCCC[C@H](O)CCCCC[C@@H](O)CC2=C[C@H](C)OC2=O)O1
2. CCOC(=O)C1C(=O)CN2CCc3c([nH]c4ccccc34)C12C(=O)OCC (centres undefined)
3. Cc1ccc(S(=O)(=O)n2cc(/C=C/C#N)c(/C=C/C#N)c2)cc1
4. Cc1ccc(N=Nc2c(C)nn(-c3ccccc3)c2-c2ccccc2)c(Br)c1

result:
5.71 µM
> 100 µM
> 100 µM
> 100 µM

Look at each compound and report its TGI.
1. COC(=O)C1CC(C(=O)OC)c2nc3cc([N+](=O)[O-])ccc3nc21 (centres undefined)
2. COP(=O)(CC(=O)C1OC(C)(C)OC1C(O)COCc1ccccc1)OC (centres undefined)
3. CCCCN(CCCC)CC(C(=O)Nc1ccccc1)/C(C)=N\NC(=O)c1ccncc1 (centres undefined)
4. CC(C)(c1cn(Cc2ccccc2)c2ccccc12)c1cn(Cc2ccccc2)c2ccccc12
5. O=C(/C=C/c1ccccc1F)c1ccc([N+](=O)[O-])cc1

result:
> 100 µM
> 100 µM
> 100 µM
> 100 µM
50.5 µM

Take each entry in turn and give its TGI.
1. CCOC(=O)C(Cc1c(C=O)[nH]c2ccccc12)(NC(=O)c1ccccc1)C(=O)OCC
2. OC[C@@H]1CC#C/C=C\C#CC[C@@H]1CO

result:
1. 31.8 µM
2. > 100 µM
